- test: Blood concentrations after oral administration of acetic acid extract or dried pulverized leaves to healthy rats
- Type: in vivo, rat
- assay.setup: male, Crj:CD (SD) IGS, rat, in vivo, po, 0.5 g/kg, Dried pulverized leaves oral, healthy rats (animals 3, 4), 12 h
observed.property: concentration at 12 h (ng/mL)
State the answer as a number, implicitly in ng/mL.

Input: I would be grateful if you could share the reported concentration at 12 h for CC[C@@]12C=CCN3CC[C@]4(C(=C(C(=O)OC)C1)Nc1cc5c(cc14)[C@H]1[C@@H](O5)[C@H](O)[C@]4(CC)CC(C(=O)OC)=C5Nc6c(cc(O)c(OC)c6OC)[C@@]56CCN1[C@H]46)[C@H]32 (stereo in doubt) .
Output: 8
